Biological target: human CD3E&G complex (Sino Biological Inc., CT041-H0305H) (human) (UniProt P07766)
Sequence (P07766 23-126, chain 1 of 2): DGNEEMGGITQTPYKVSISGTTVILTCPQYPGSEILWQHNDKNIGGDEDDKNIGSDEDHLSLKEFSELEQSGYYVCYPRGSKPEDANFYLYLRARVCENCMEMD
Sequence (P09693 23-116, chain 2 of 2, further chain): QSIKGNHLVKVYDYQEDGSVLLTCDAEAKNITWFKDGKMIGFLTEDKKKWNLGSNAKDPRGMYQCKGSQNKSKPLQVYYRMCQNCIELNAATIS
Assay: SPR, antigen on chip
quantity: koff (s⁻¹)
# output: bare number, implied unit s⁻¹

1. SGN70-sp34.97LH (bispecific antibody, part only; not given: anti-CD70 Fab arm and Fc, not shown: another chain or arm of the molecule; a dimerising Fc or GST) scFv: QAVVTQEPSLTVSPGGTVTLTCRSSTGAVTTSNYANWVQQKPGQAPRGLIGGTNKRAPGVPARFSGSLLGDKAALTLLGAQPEDEAEYYCALWYSNLWVFGQGTKLTVLGGGGSGGGGSGGGGSGGGGSEVQLVESGGGLVQPGGSLKLSCAASGFTFNTYAMNWVRQASGKGLEWVGRIRSKAGGYATYYADSVKDRFTISRDDSKSTLYLQMNSLKTEDTAVYYCARHGNFGQSYVSWFAYWGQGTTVTVSS; 0.253
2. SGN70-sp34.101LH (bispecific antibody, part only; not given: anti-CD70 Fab arm and Fc, not shown: another chain or arm of the molecule; a dimerising Fc or GST; large carriers) scFv: QAVVTQEPSLTVSPGGTVTLTCRSSTGAVTTSNYANWVQQKPGQAPRGLIGGTNKRAPGVPARFSGSLLGDKAALTLLGAQPEDEAEYYCALWYSNLWVFGQGTKLTVLGGGGSGGGGSGGGGSGGGGSEVQLVESGGGLVQPGGSLKLSCAASGFTFNTYAMNWVRQASGKGLEWVGRIRSKYNNYATYYADSVKDRFTISRDDSKSTLYLQMNSLKTEDTAVYYCARHGNFGQSAASWFAYWGQGTTVTVSS; 0.119
3. SGN70-sp34.87HL (bispecific antibody, part only; not given: anti-CD70 Fab arm and Fc, not shown: another chain or arm of the molecule; a dimerising Fc or GST) scFv: EVQLVESGGGLVQPGGSLKLSCAASGFTFNTYAMNWVRQASGKGLEWVGRIRSKYNNYATYYADSVKDRFTISRDDSKSTLYLQMNSLKTEDTAVYYCARHYNFGQSYVSWFAYWGQGTTVTVSSGGGGSGGGGSGGGGSGGGGSQAVVTQEPSLTVSPGGTVTLTCRSSTGAVTTSNYANWVQQKPGQAPRGLIGGTNKRAPGVPARFSGSLLGDKAALTLLGAQPEDEAEYYCALWYSNLWVFGQGTKLTVL; 0.253

-- ask Looking for the measured koff of SGN70-sp34.101HL (bispecific antibody, part only; not given: anti-CD70 Fab arm and Fc, not shown: another chain or arm of the molecule; a dimerising Fc or GST; large carriers) scFv: EVQLVESGGGLVQPGGSLKLSCAASGFTFNTYAMNWVRQASGKGLEWVGRIRSKYNNYATYYADSVKDRFTISRDDSKSTLYLQMNSLKTEDTAVYYCARHGNFGQSAASWFAYWGQGTTVTVSSGGGGSGGGGSGGGGSGGGGSQAVVTQEPSLTVSPGGTVTLTCRSSTGAVTTSNYANWVQQKPGQAPRGLIGGTNKRAPGVPARFSGSLLGDKAALTLLGAQPEDEAEYYCALWYSNLWVFGQGTKLTVL , can you help?
-- reply 0.167

Where these numbers come from: patent US20230374132A1
